Values from paper PMC9916714

- Experimental Target: T1, La RRM2-Cter (Homo sapiens, UniProt P05455 225-408)
- T1 sequence: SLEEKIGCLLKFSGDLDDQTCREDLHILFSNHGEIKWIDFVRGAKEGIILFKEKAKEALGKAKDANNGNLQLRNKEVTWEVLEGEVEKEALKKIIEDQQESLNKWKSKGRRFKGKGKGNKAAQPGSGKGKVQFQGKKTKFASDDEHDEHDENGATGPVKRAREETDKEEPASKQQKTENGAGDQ
- Method Description: ITC; 50 mM KPi pH 7, 25 C; 50 mM KPi pH 7; ITC at 25 C (50 uM protein in cell, 500 uM RNA in syringe); NMR at 298 K, 0.1 mM protein, 90% H2O/10% D2O
- Test Context: protein: recombinant; tags: IMAC tag (pET20b+; tag not specified)
Measured Metric: Kd (µM)
Return type: number; implicit unit µM.

Task item: What Kd value was documented for this binder, AGACCGUGCACCAUGAGCACGAAUCCA (structured_RNA) [HCV-IRES domain IV] ?
Reply: 15.3
